Exercise: for every item that follows, state its recorded melting point.

# molecule `N#CSCCON=C(C(=O)O)c1csc(NC(c2ccccc2)(c2ccccc2)c2ccccc2)n1` ; its melting point = 194 °C

// field: melting point; key: `Cc1ccc(-c2nc(-c3ccncc3)cs2)c(=O)[nH]1` ; value = > 300 °C

Lab book: melting point of CCS1(N2CCN(c3ccccc3OC)CC2)C(C)=C(C)c2c1[nH]c(=O)[nH]c2=O (stereo unspecified) noted as 196 to 197 °C

Record `CCOC(=O)C(=O)c1cc(O)c(O)c([N+](=O)[O-])c1` , field melting point: 77 to 79 °C

Entry `Clc1ccc(C(=Cn2cncn2)c2ccc(Cl)cc2)cc1` ; melting point = 126 to 128 °C

Short answer for O=C(O)C1Cc2ccccc2CN1C(=O)c1ccc(Cl)cc1 (stereo unspecified) : melting point was 77 to 79 °C

The molecule listed as COC(=O)c1cc(O)cnc1C1=NC(=O)C(C)(C(C)C)N1 (stereo unspecified) shows melting point equal to 200 to 205 °C

Recorded melting point (molecule `O=c1ccc(C(c2ccc(Cl)cc2)c2ccc(Cl)cc2)c[nH]1` ): 211 to 215 °C

Field melting point (entry `Cc1nn(C)c2ncc(C(=O)O)c(NCS(=O)(=O)c3ccc(F)cc3)c12` ) reads 275 to 276 °C

Entry O=[N+]([O-])c1ccc2c(c1)SC(c1ccc(Cl)cc1Cl)O2 (stereo unspecified) , melting point reported as 106 to 108 °C

Recorded result, O=C(c1ccccc1)n1c(=O)c(C(F)(F)F)cn(C2CC(O)C(COCc3ccc(Cl)cc3)O2)c1=O (stereo unspecified) , melting point: 159 to 160 °C

response.value for `COC(=O)Cc1ccc(O)c(NC(=O)C(C)(C)C)c1` (field: melting point) = 112 to 113 °C

# molecule CCCN(CCCc1c[nH]c2ccc(Cl)cc12)C1COc2c(F)ccc(C(N)=O)c2C1 (stereo unspecified) ; its melting point = 148 to 154 °C

Noted for O=C(CCl)N1Cc2ccccc2P1(=O)c1ccccc1 (stereo unspecified) : its melting point reads 167 to 169 °C

Entry CCCCCCCCCCCCn1nnc(C(C(=O)O)c2ccccc2)n1 (stereo unspecified) , melting point reported as 55 to 57 °C

The reported melting point of the molecule `COc1nc(C)cnc1N(C(=O)OCC(C)C)S(=O)(=O)c1cccnc1-c1ccc(C)cc1` was 143 to 145 °C

Documented melting point of `CCn1c2ccc(I)cc2c2cc(I)ccc21` : 75 to 79 °C

Lab note: measured melting point of `N#Cc1c(N2CCN(C(=O)c3cccs3)CC2)c2sccc2n(Cc2ccc(F)cc2)c1=O` was 286 °C

melting point reported for this molecule Cc1nc2c(N)c(C(=O)C3OC3c3ccsc3)ccn2c1C (stereo unspecified) : 186 to 189 °C

Reported melting point for C=NOC(C(=O)O)c1cccc(NC(=O)NCC(=O)N2C(c3ccccc3)CCC2c2ccccc2)c1 (stereo unspecified) was 194 °C

melting point recorded for this molecule, CC(Br)C(=O)c1ccc(O)cc1 (stereo unspecified) , is 95 to 97 °C
